Read-out record for AsbB (Bacillus anthracis, UniProt Q81RQ8): IC50

{"Smi": "CC(=O)[C@H](C)C[C@@H](C)C[C@H](C)CC[C@@H](O)C[C@@H](O)[C@@H](CC(C)C)[C@@H](O)c1cc(O)cc(O)c1", "IC50": "> 1000 µM"}

Measured IC50, "CCC(=O)[C@H](C)C[C@@H](C)C[C@H](C)CC[C@@H](O)C[C@@H](O)[C@@H](CC(C)C)[C@@H](O)c1cc(O)cc(O)c1" : > 1000 µM

###

Biological target: SbnE (Staphylococcus aureus)
Sequence (Q2G1M9 whole entry): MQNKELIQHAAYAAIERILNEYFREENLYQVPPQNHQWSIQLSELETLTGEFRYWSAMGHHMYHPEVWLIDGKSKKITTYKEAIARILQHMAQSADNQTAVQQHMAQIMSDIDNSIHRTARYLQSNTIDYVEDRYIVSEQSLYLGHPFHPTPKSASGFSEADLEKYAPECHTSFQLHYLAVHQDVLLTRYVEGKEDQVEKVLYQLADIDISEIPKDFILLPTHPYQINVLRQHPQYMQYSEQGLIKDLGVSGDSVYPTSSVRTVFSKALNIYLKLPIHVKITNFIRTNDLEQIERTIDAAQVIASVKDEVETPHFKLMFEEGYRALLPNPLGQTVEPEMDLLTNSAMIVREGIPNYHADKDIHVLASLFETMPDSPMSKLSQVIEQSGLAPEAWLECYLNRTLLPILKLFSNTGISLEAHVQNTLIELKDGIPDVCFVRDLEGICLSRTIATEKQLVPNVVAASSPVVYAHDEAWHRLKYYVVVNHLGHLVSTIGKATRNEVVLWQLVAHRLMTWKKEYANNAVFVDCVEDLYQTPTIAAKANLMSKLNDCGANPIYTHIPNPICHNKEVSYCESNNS
Test Readout: IC50 (µM)
Give bare numbers, in µM.

{"Smi": "CCC(=O)[C@H](C)C[C@@H](C)C[C@H](C)CC[C@@H](O)C[C@@H](O)[C@@H](CC(C)C)[C@@H](O)c1cc(O)cc(O)c1", "Result Number": 4.8}

Next molecule, please.
# IC50 (molecule: "CC(=O)[C@H](C)C[C@@H](C)C[C@H](C)CC[C@@H](O)C[C@@H](O)[C@@H](CC(C)C)[C@@H](O)c1cc(O)cc(O)c1" ) is 19
